molecular target: γ-secretase (Homo sapiens); construct: endogenous in cells; test: In vitro γ-secretase activity assay, Aβ42 production (ECL); assay type: biochemical; settings: in vitro inhibition of γ-secretase activity that generates Aβ42; 2.5 hr at 37° C., ECL detection

COMPOUND	SUBJECT_OF_TEST	IC50
O=c1oc2ccccc2c(O)c1C1c2cc(F)c(F)cc2Oc2c1c(=O)oc1ccccc21 (centres unmarked)	γ-secretase (Homo sapiens)	0.9 µM
COc1ccc(/C=C/C(c2c(O)c3ccccc3oc2=O)c2c(O)c3ccccc3oc2=O)cc1 [(trans)-258]	γ-secretase (Homo sapiens)	5.6 µM
O=c1oc2ccc(F)cc2c(O)c1C(c1cc(F)c(F)c(F)c1)c1c(O)c2cc(F)ccc2oc1=O	γ-secretase (Homo sapiens)	0.9 µM
O=C(Cc1cc(F)cc(F)c1)NCCNC(=O)CC(c1cc(F)c(F)c(F)c1)c1c(O)c2ccccc2oc1=O (centres unmarked)	γ-secretase (Homo sapiens)	4.53 µM
O=c1oc2ccccc2c(O)c1C1c2c(F)c(F)c(F)c(F)c2Oc2c1c(=O)oc1ccccc21 (centres unmarked)	γ-secretase (Homo sapiens)	1.3 µM
O=c1oc2ccccc2c(O)c1C(c1ccc(Br)cc1)c1c(O)c2ccccc2oc1=O	γ-secretase (Homo sapiens)	1.2 µM
O=c1oc2ccccc2c(O)c1C(Cc1ccc(F)cc1)c1c(O)c2ccccc2oc1=O	γ-secretase (Homo sapiens)	0.9 µM
O=c1oc2ccccc2c(O)c1C(c1c(O)c2ccccc2oc1=O)C1CCCCC1	γ-secretase (Homo sapiens)	1.2 µM
